Test system: MALME-3M melanoma
experiment summary: NCI-60 one-dose screen, 48 h (100 = growth as untreated, 0 = no growth, -100 = all killed)
setup conditions: 10 µM unless noted
The panel holds about 83,000 compounds, 20% with a hit somewhere; the sample as a whole holds those more often.
Please use the following growth ranges when assigning a class: bucket A (below -20%), bucket B (-20% to below 90%), bucket C (90% or more)

// below: answered molecules
Cc1ccc(C(C(=O)NC2CCCCC2)N(Cc2ccccc2Cl)C(=O)c2ccc(CN3CCOCC3)o2)o1 (stereo unspecified) :: bucket C
O=C(NNC(=O)c1ccc(OCc2nc3ccc(Cl)cc3[nH]2)cc1)Nc1ccc(Cl)c(C(F)(F)F)c1 :: bucket B
Nc1nn2c(-c3cc4cc(Br)ccc4oc3=O)ccnc2c1N=Nc1ccc(S(N)(=O)=O)cc1 :: bucket B
Cc1ccc(Cl)cc1NC(=O)Nc1nc2ccc([N+](=O)[O-])cc2s1 :: bucket A
Clc1ccc2c(NCCNC34CC5CC(CC(C5)C3)C4)ccnc2c1 :: bucket A

**Q:** Record `O=c1[nH]c2ccccc2cc1COc1ccc(Nc2nccc(-c3ccc(Cl)cc3)n2)cc1` — which class?
**A:** bucket C

**Q:** Which growth band matches `COc1ccc(S(=O)(=O)Nc2ccc(-c3ccc4c(c3)NC(=O)/C4=C\c3ccc[nH]3)cc2)cc1OC` ?
**A:** bucket B

**Q:** Form: Item = `N#Cc1c(NC(=O)N2CCOCC2)n(-c2ccc(OC(F)(F)F)cc2)c2cc(F)ccc12` ; Class = ?
**A:** bucket C

**Q:** Please classify: `CCCCCCCCc1ccc(C(=O)Nc2ccc(C)c(OP(=O)(O)O)c2)cc1`
**A:** bucket C

**Q:** Which growth band matches `COc1cc(NC(=O)CSc2nnc(-c3ccc(-c4nc5ccc(Cl)cc5[nH]4)cc3)o2)cc(OC)c1OC` ?
**A:** bucket B

**Q:** Record `O=C(N/N=C/c1ccsc1)c1[nH]c2ccc(Br)cc2c1-c1ccccc1` — which class?
**A:** bucket A

---

Tested on: SK-MEL-5 melanoma
experiment summary: NCI-60 one-dose screen, 48 h (100 = growth as untreated, 0 = no growth, -100 = all killed)
setup conditions: 10 µM unless noted
Description: Growth inhibition of the SK-MEL-5 human tumor cell line is measured as a screen for anti-cancer activity. Cells are grown in 96 well plates and exposed to the test compound for 48 hours. Compounds are tested at a single concentration, which is 10^-5 M for most compounds. The reported endpoint is percent growth (GI% or GIPRCNT), where numbers from 0 - 100% represent growth inhibition, and numbers from -100% - 0 represent cell death. For example, a value of 40 represents 60% growth inhibition. […]
The panel holds about 83,000 compounds, 20% with a hit somewhere; the sample as a whole holds those more often. Calls of active or inactive are those of the source. How the source made its calls: active means growth percent below 10; inactive means the rest.
measured property: growth

COc1ccc(NC(=O)NN2C(=O)c3ccccc3N(C)C2c2ccc(OC)cc2)cc1 (stereo not given) :: 92.6% (inactive)
CN1C(=O)C2(C(C#N)=C(c3ccc(Cl)cc3)Nc3c2c(-c2ccccc2)nn3-c2ccccc2)c2ccccc21 (stereo not given) :: 88.1% (inactive)
CCN(C(=O)CN1C(=O)/C(=C/c2ccco2)SC1=S)C1CCS(=O)(=O)C1 (stereo not given) :: 91.9% (inactive)
O=C(/C=C1\C(=O)N(Cc2ccccc2)c2ccccc21)c1cc2ccccc2oc1=O :: 90.2% (inactive)

# next compound below
**Q:** Look up and report measured growth for this entry: CC(C)(C)C(=O)C1CC(C#N)=C2C=Cc3c(ccc4ccccc34)N21 (stereo not given)
**A:** 91.1% (inactive)

Just for reference, PubChem BioAssay (NCI) is where these values come from.
